Experiment: Microsomal stability in mouse liver microsomes assessed as intrinsic clearance
Type: ADME, Microsome
Settings: read-out: CLH
Label key: Met means microsomal CLint under 40 µL/min/mg; Not met means microsomal CLint of 40 µL/min/mg or more.

## Task Determine whether this compound shows microsomal CLint lower than 40 µL/min/mg (ties excluded): Cn1ccnc1COC(=O)N[C@H]1CCc2c(C(=O)Nc3ccc(F)c(Cl)c3)ccc(F)c21
## Result Not met

* * *

Assay: Microsomal stability in human liver microsomes assessed as intrinsic clearance
Format: ADME, Microsome
Details: read-out: CLH
Each entry below lists one item and its recorded microsomal CLint value.
Respond with the bare value in µL/min/mg.

Please review the entries below; each comes with its answer.
O=C(N[C@H]1CCc2c(C(=O)Nc3ccc(F)c(Cl)c3)ccc(F)c21)OCCn1ccnc1	20
O=C(N[C@H]1CCc2c(C(=O)Nc3ccc(F)c(Cl)c3)ccc(F)c21)OCc1ccccn1	11
COC(=O)N[C@H]1CCc2c(C(=O)Nc3ccc(F)c(Cl)c3)ccc(F)c21	3.5
COCCCOC(=O)N[C@H]1CCc2c(C(=O)Nc3ccc(F)c(Cl)c3)ccc(F)c21	10

## Task I have this compound here, O=C(N[C@H]1CCc2c(C(=O)Nc3ccc(F)c(Cl)c3)ccc(F)c21)OCc1cc[nH]n1 , and I need its recorded microsomal CLint.
## Result 8

* * *

Assay: Clearance in rat at 2 mg/kg,iv
Assay type: ADME, organism-based
Settings: in vivo
quantity-name: clearance (mL/min/kg)
Respond with the bare value in mL/min/kg.

## Task I have this molecule here, Cn1cnc(COC(=O)N[C@H]2CCc3c(C(=O)Nc4ccc(F)c(Cl)c4)ccc(F)c32)n1 , and I need its recorded clearance.
## Result 4.6

* * *

Assay: Microsomal stability in human liver microsomes assessed as intrinsic clearance
Type: ADME, Microsome
Conditions: read-out: CLH
quantity-name: microsomal CLint (µL/min/mg)
Respond with the bare value in µL/min/mg.

COC(=O)N[C@H]1COc2c(C(=O)Nc3ccc(F)c(F)c3)cccc21	5
Cn1ccc(COC(=O)N[C@H]2CCc3c(C(=O)Nc4ccc(F)c(Cl)c4)ccc(F)c32)n1	7.9
COC(=O)N[C@H]1CCc2c(C(=O)Nc3ccc(F)c(F)c3)cccc21	0.6
O=C(N[C@H]1CCc2c(C(=O)Nc3ccc(F)c(Cl)c3)ccc(F)c21)OCCO	1

## Task I have this molecule here, CC(=O)NCCOC(=O)N[C@H]1CCc2c(C(=O)Nc3ccc(F)c(Cl)c3)ccc(F)c21 , and I need its recorded microsomal CLint.
## Result 133

## Task I have this molecule here, O=C(N[C@H]1CCc2c(C(=O)Nc3ccc(F)c(Cl)c3)ccc(F)c21)OCc1ccon1 , and I need its recorded microsomal CLint.
## Result 4.8

## Task I have this molecule here, Cn1cnc(COC(=O)N[C@H]2CCc3c(C(=O)Nc4ccc(F)c(Cl)c4)ccc(F)c32)n1 , and I need its recorded microsomal CLint.
## Result 6.2

## Task I have this molecule here, O=C(N[C@H]1CCc2c(C(=O)Nc3ccc(F)c(Cl)c3)ccc(F)c21)OCc1cnccn1 , and I need its recorded microsomal CLint.
## Result 6.9

## Task I have this molecule here, O=C(N[C@H]1CCc2c(C(=O)Nc3ccc(F)c(Cl)c3)ccc(F)c21)OCc1ccncn1 , and I need its recorded microsomal CLint.
## Result 1

* * *

Assay: Microsomal stability in mouse liver microsomes assessed as intrinsic clearance
Type: ADME, Microsome
Details: read-out: CLH
Each entry below lists one item and its recorded microsomal CLint value.
# output: number + unit

O=C(N[C@H]1CCc2c(C(=O)Nc3ccc(F)c(Cl)c3)ccc(F)c21)OCc1ccncn1	45 µL/min/mg
COCCOC(=O)N[C@H]1CCc2c(C(=O)Nc3ccc(F)c(Cl)c3)ccc(F)c21	8.1 µL/min/mg
Cn1cnc(COC(=O)N[C@H]2CCc3c(C(=O)Nc4ccc(F)c(Cl)c4)ccc(F)c32)n1	21 µL/min/mg

Kindly review the next compound as well.
## Task I have this compound here, O=C(N[C@H]1CCc2c(C(=O)Nc3ccc(F)c(Cl)c3)ccc(F)c21)OCc1ccccn1 , and I need its recorded microsomal CLint.
## Result 36 µL/min/mg
